System: SK-MEL-28 melanoma
Assay Overview: NCI-60 one-dose screen, 48 h
Recorded Conditions: 10 µM unless noted
Compounds without any hit were thinned out: in the full panel of roughly 83,000, 20% have a hit. The source made the active and inactive calls. Rule for the calls: active = growth percent below 10; inactive = the rest.
In this exercise, the only acceptable responses are yes (1) = active, no (0) = inactive

Query block: Outcome logged for CCN(CCO)CCC(=O)c1ccc([N+](=O)[O-])cc1 in this assay:
Result block: no (0)

Query block: Recorded call for O=C1NC(=O)C(Cc2ccccc2)(Cc2ccccc2)N1 ?
Result block: no (0)

Query block: For this molecule, state the assay outcome: c1ccc(-c2n[nH]c(-c3ccccn3)n2)nc1
Result block: no (0)

Continuing:
Query block: Test call, this molecule: C=C(C)[C@@H]1CC[C@]2(C(=O)O)CC[C@]3(C)[C@H](CC[C@@H]4[C@@]5(C)C/C(=C/c6ccco6)C(=O)C(C)(C)[C@@H]5CC[C@]43C)[C@@H]12
Result block: yes (1)

Query block: Check the results log: what was the call for CCOC(=O)C(c1ccccc1)N1C(=O)c2ccccc2C1=O (stereo not given) ?
Result block: no (0)
